Ref: the supplement of paper PMC9170038

# Test system: K4 kissing-loop RNA reporter
# protocol text: apparent KD of K4 kissing-loop reporter; higher = weaker reporter binding
# test settings: Eterna round: R107; input ligand: FMN 200 uM
Quick rule for you: apparent KD of K4 kissing-loop reporter at 200 nM or higher means True, lower means False.

As a guide, the following entries are already answered.
UUUUACGAGUGAUGUUCGUAUUGUAAUAGUUAGGAUAUCGUUUUUUCGAGAAGGAACUUCGAAGUGAUACGAAAGUAUCGCUUCG [FMN A 10]	False
ACACGCAACUAUAGACCAGUGAUGUUGGAACGAGGACCGGUACGGCCGCCACUCGAGCGGACGAUCUACGCCUCUUAUGCUAACG [theeternabot_exclusion_KL_Trp_A_15]	True
GAUGCAUAUUCCUGGAGGAAGAUGGUUAAGAAGGAUAUCAAAGCCGUGAGAAGGUCUAAACCUAAUAGUCGAGUGAUGUUCGACC [theeternabot_sameState_KL_FMN_A_35]	True
GGCACUUUUGCUUGGAACCGUCAAGCUCUUUAGGAUAUCUGGAAACAGAGAAGGAAAGACCUACAGAGUGAUGUUCUGCGUGCCU	True
AAAAUUGCGGUUUUAAGAUCUUUUUGCUUACGAGGACCGGUACGGCCGCCACUCGAGUCAAGUGAUGUUUGAUUUUCUAUUAUUA [JR_ExcTryptoA_Sub015]	False
GGGAGCAAAGCUCCCGGAUGCUAUUACCAGGAGGAUAUCUGGAAACAGAGAAGGCCUAAGCCAGUGAUGUUGGUUUCGAGCAUCC	False
AAUAAUGGAGUGAUGUUCCAGUAAUGGGAUACCAGACAUGAAAAUGUCCCUUGGCAGCUCAAAGGUCUAGUGAUGUUAGAAAGAA [KL-SSTheo-A5 #Double Kiss]	True
AUUCAUUUCAGAGGAUAUCGAUGGAGAGUGAUGUUCUCCCAUAGCCAGUGAUGUUGGCUAGCUAUUCGAGAAGGCUGUGGGUGGA [Same State FMN B GF 27]	False

Check this sequence for apparent KD of K4 kissing-loop reporter at or above 200 nM: GCCGUAGAUGGAAGGAGCGUGUCAAAGUGAUGUUUUGAUUAACUCCCUACGGGAUAGAUGACACAGGUAGGUCGCCAUCUACGGC
False

Check this sequence for apparent KD of K4 kissing-loop reporter at or above 200 nM: UGACAUUGCUCAGAUACCAGACAAGAGGAUCACCCUUGUGCCAAAACGUACUAAAUAAAUGUCCCUUGGCAGCUGAGCAAUGUCU [TheoBX 13]
False

----------
# Tested on: MS2 coat protein
# protocol text: apparent KD of MS2 coat protein; designed switch direction (-1 OFF switch, 1 ON switch): 1; higher = weaker reporter binding
# test settings: input ligand: microRNA oligo, concentration not stated
readout kind: apparent KD of MS2 coat protein (µM)
Number only, in µM; omit the unit.

Look up apparent KD of MS2 coat protein: GCUGCAAGGGCAGGAUAUGGGUCCAAAGCGCAAGUGCGCUUUGGUACAUGAGGAUCACCCAUGUCCCAGAAGGGCCCAUGCGGC [Edenbiatar] (Eterna round: R96, puzzle: Same State NG 2)
0.0784

Look up apparent KD of MS2 coat protein: GCUAGUAUAAUUGUCAACAUGAGGAUCACCCAUGUAUGUUGGCAGGAUAUCGUUUGCAAAGCAAACGAGAAGGGCUAAACUAGC [Mat - Same State NG 3 - JL Mod - D11] (Eterna round: R96, puzzle: Same State NG 3)
0.106

----------
# System: MS2 coat protein
# protocol text: apparent KD of MS2 coat protein; higher = weaker reporter binding
# test settings: Eterna round: R107; input ligand: theophylline 20 uM
Overview of reported apparent KD of MS2 coat protein across a group of sequences:
Number only, in nM; omit the unit.

AUAAUAAGGUGAUCCUAAGUCGUACCGUAACGAGGACCGGUACGGCCGCCACUCGAACAUGAGGAUCACCCAUGUAUGUACGACA [M'-T'-T-MS2-T'' - Design 6]	96.1
UCAGUGCAAGGAAGGAGCGGGUACAUGAGGAUCACCCAUGUGCAAGUGGUGAGUGUUCGUGCCCAGGUAGGUCGCCUAGCCUGGU [XArg-B19]	122
AGCAAGUUCGGAAGGAGCGGUACAUGAGGAUCACCCAUGUAUUCAAUCGUGAUCGGAACGUGCCAGGUAGGUCGCCGAAUGCGUC [XArg-B1]	23.1

Look up apparent KD of MS2 coat protein: GGUCAGCAGUCGGCCGCCACUAGUAUACAUGAGGAUCACCCAUGUCCCUUGCGCCUCACCGAUUUUAGGACCGGGACACUGCCUG [theeternabot_exclusion_MS2_Trp_B_9]
42

Look up apparent KD of MS2 coat protein: AGAAUAACACAUGAGGAUCACCCAUGUGAUACCAGCUAGGAAACUAGCCCUUGGCAGCACAUAAUCCUCAUGAAUGUGCUGAAUA [(M1)-(M2)-(T1)-(T2)-(M)'-(T)'_Design3_2/19/17]
121

Look up apparent KD of MS2 coat protein: CGGGUUCGGGCGGCCGCCACUUUGAUUGGGUGUGACAUGAGGAUCACCCAUGUUGUGGGUGAUCGGAGGACCGGGUUUGGGCUUG [Fidorka]
471

----------
# Tested on: K4 kissing-loop RNA reporter
# protocol text: apparent KD of K4 kissing-loop reporter; higher = weaker reporter binding
# test settings: Eterna round: R107; input ligand: none
Overview of reported apparent KD of K4 kissing-loop reporter across a group of sequences:
Number only, in nM; omit the unit.

Previously resolved entries follow.
UAGUGAUGCUAUGUUAGGUUUUUUAGGGAAGGAGCGCCAAAGAAGGCAGGUAGGUCGCCCUAUAUUCCCAGUGAUGUUGGGUAUU [Skye_Ex_AA]	74.9
UUAGAGGCCCAGUGAUGUUGGGUGGUUGGGCGAGGACCGGUACGGCCGCCACUCGCCGCGGAACUAUCGGAAUCUCGCUCGGCUA [Aninxearqu]	239
UGAUACCAGACGGCCGCCACUCCCGUAAGUCAAAGACUUACGAAGAGAGUUAUCCAGUGAUGUUGGAGGACCGGGUCUGGUAUCU [FiskerMod 14 - Jieux - Exclusion - Tryptophan B]	192
AAUAAUGGAGUGAUGUUCCAGUAAUGGGAUACCAGACAUGAAAAUGUCCCUUGGCAGCUCAAAGGUCUAGUGAUGUUAGAAAGAA [KL-SSTheo-A5 #Double Kiss]	310
GUUUCAGUGAUGUUGGAAGGCGAGCGGGAUACCAGCCAAGACUCAGGCCCUUGGCAGCCCACAUAUCCCACGUAGAUAGUAGCUC [Same State - Theophylline A (Freestyle 14)]	133

Next item in the queue.
Report apparent KD of K4 kissing-loop reporter for CCCUAAAUAUGCAGUGAUGUUGCAACUGAUACCAGUAUCGAAAGAUACCCUUGGCAGCGGAAAACCGCUACGUAAUUUAAUAGGG [Ex Theophylline A K4 20] tested on K4 kissing-loop RNA reporter.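 Further: bound reporter read as fluorescence of individual clusters on recovered sequencing chips by microscopy, with normalized cluster intensities fitted with a binding model.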
387

----------
# Test system: MS2 coat protein
# protocol text: apparent KD of MS2 coat protein; designed switch direction (-1 OFF switch, 1 ON switch): -1; higher = weaker reporter binding
# test settings: input ligand: microRNA oligo, concentration not stated
readout kind: apparent KD of MS2 coat protein
State the value with its unit after it.

Previously resolved entries follow.
GUAAAUCAUGUAGGAUAUGCGUGGCGAAGCUAUGCAGAAGGACAUGAGGAUCACCCAUGUGCUUCCGUCUGAGAACAGACGGAG [Mat - Exclusion NG 1 - Mod of JL - D28] (Eterna round: R96, puzzle: Exclusion NG 1)	116 nM
ACAUGUUGCGCAGGAUAUGAGACACAUGAGGAUCACCCAUGUGGCUACAUGUCAUACCAAGCGUCUCAGAAGGGUGUGAACAUG [Ex NG2 #34] (Eterna round: R96, puzzle: Exclusion NG 2)	11.7 nM
UUCCUACAUGAGGAUCACCCAUGUGAGGAUAUGCAUCGUAUUAUUCUCGUAUGUAGUAGCAGAAGGCGCAUUGG [Starry Exclusion 1.1] (Eterna round: R96, puzzle: Exclusion 1)	15.9 nM
CAUGAUUGACGAGGAUAUUGUUCUACAUCACGACGAGAAGGCGUCUGUCACAUGAGGAUCACCCAUGUGAGACUGGUGAAUGAG [Ex NG1 #81] (Eterna round: R96, puzzle: Exclusion NG 1)	17.1 nM
GCAGCAAAUUCCACUAAAACCACAUGAGGAUCACCCAUGUCUCAGGAUAUGGUCUGGAUUACAGGCCAGAAGGGAGAAAGCUGC [Eli exng3 - 056] (Eterna round: R96, puzzle: Exclusion NG 3)	9.52 nM

Next item in the queue.
Report apparent KD of MS2 coat protein for GUGUGUUGAUUAGGAUAUGCUCUAAGCAAUCGGGCAGAAGGAGUUAGACAUGAGGAUCACCCAUGUAAAUAUCGGAUCCCAACG [Eternabot solution 17] (Eterna round: R96, puzzle: Exclusion NG 1) tested on MS2 coat protein.
16.2 nM
